// provenance: paper PMC6792352

PROCEDURE_SUMMARY: in vitro
CONDITION_NOTES: rat, gh3-tre-luc cells, AC50 (uM) modified / 1000
Where a name gives a salt, the structure may show the parent alone.
Recorded measurements of CC50 at 24 h, one per entry

{"MOLECULE": "O=S1(=O)CCCC1 [Sulfolane]", "VAL": "> 90 µM"}

Prompt line: Supply CC50 at 24 h value. Item: COc1cccc([C@@]2(O)CCCC[C@@H]2CN(C)C)c1 [Tramadol hydrochloride]
Response line: > 50 µM

Prompt line: Supply CC50 at 24 h value. Item: CNC(=O)Oc1cccc(C(C)C)c1 [m-Cumenyl methylcarbamate]
Response line: > 90 µM

Prompt line: Supply CC50 at 24 h value. Item: C[C@H]1[C@H]2CC[C@H]3[C@@H]4CC=C5C[C@@H](N(C)C)CC[C@]5(C)[C@H]4CC[C@]23CN1C [Conessine]
Response line: > 50 µM

Prompt line: Supply CC50 at 24 h value. Item: CN1CCC(OC(=O)C(Oc2ccc(Cl)cc2)Oc2ccc(Cl)cc2)CC1 [Lifibrate]
Response line: 27.6 µM

###

Recorded measurements of CC50 at 24 h, one per entry
PROCEDURE_SUMMARY: in vitro
CONDITION_NOTES: rat, gh3-tre-luc cells, AC50 (uM) modified / 1000
Counter-ions that a name gives are not always drawn.

{"MOLECULE": "C=CCOCC1CO1 (stereo not shown)", "CC50 at 24 h": "> 90 µM"}
{"MOLECULE": "CCOCCOC(C)=O [2-Ethoxyethyl acetate]", "CC50 at 24 h": "> 90 µM"}
{"MOLECULE": "Brc1c(Br)c(Br)c(Br)c(Br)c1Br", "CC50 at 24 h": "> 5 µM"}
{"MOLECULE": "CC(=O)Oc1cc2c(s1)CCN(C(C(=O)C1CC1)c1ccccc1F)C2 (stereo not shown) [Prasugrel hydrochloride]", "CC50 at 24 h": "> 50 µM"}
{"MOLECULE": "O=C1CCC(=O)N1Cl [N-Chlorosuccinimide]", "CC50 at 24 h": "> 90 µM"}
{"MOLECULE": "CCN(CC)C(=O)Nc1ccc(OCC(O)CNC(C)(C)C)c(C(C)=O)c1 (stereo not shown) [Celiprolol hydrochloride]", "CC50 at 24 h": "> 50 µM"}

Prompt line: Supply CC50 at 24 h value. Item: `N[C@@H](CSSC[C@H](N)C(=O)O)C(=O)O`
Response line: > 50 µM

Prompt line: Supply CC50 at 24 h value. Item: `Nc1cc(Cl)ccc1Cl`
Response line: > 90 µM

Prompt line: Supply CC50 at 24 h value. Item: `O=C(O)Cc1c(Cl)ccc(Cl)c1Cl`
Response line: > 90 µM

Prompt line: Supply CC50 at 24 h value. Item: CC[C@@H](CO)NC(=O)[C@@H]1C=C2c3cccc4c3c(cn4C)C[C@H]2N(C)C1 [Methysergide]
Response line: > 50 µM

###

PROCEDURE_SUMMARY: in vitro
CONDITION_NOTES: rat, gh3-tre-luc cells, AC50 (uM) modified / 1000
Structures can show the parent of a compound that is named as a salt.
MEASURED_PARAMETER: CC50 at 24 h

{"COMPOUND": "O=[N+]([O-])c1cc[n+]([O-])cc1 [4-Nitropyridine-1-oxide]", "CC50 at 24 h": "> 90 µM"}
{"COMPOUND": "COc1cc(CCC(C)=O)ccc1O [4-(4-Hydroxy-3-methoxyphenyl)-2-butanone]", "CC50 at 24 h": "> 90 µM"}
{"COMPOUND": "CCOc1cc(-c2nccc3cc(OC)c(OC)cc23)cc(OCC)c1OCC", "CC50 at 24 h": "28.2 µM"}
{"COMPOUND": "CON(C)C(=O)Nc1ccc(Cl)c(Cl)c1", "CC50 at 24 h": "> 90 µM"}
{"COMPOUND": "O=C1CN=C(c2ccccc2)c2cc(Cl)ccc2N1CC1CC1", "CC50 at 24 h": "> 90 µM"}

Prompt line: Supply CC50 at 24 h value. Item: `CC(C)(N)C#N`
Response line: > 90 µM

Prompt line: Supply CC50 at 24 h value. Item: `Nc1ccc(Oc2ccc(Cl)cc2)cc1`
Response line: > 90 µM

Prompt line: Supply CC50 at 24 h value. Item: c1cc(CN2CCCCC2)cc(OCCCNc2nc3ccccc3s2)c1 [Zolantidine dimaleate]
Response line: 8.26 µM

Prompt line: Supply CC50 at 24 h value. Item: COc1ccc(CN(CCN(C)C)c2ncccn2)cc1 [Thonzylamine hydrochloride]
Response line: > 50 µM

###

PROCEDURE_SUMMARY: in vitro
CONDITION_NOTES: rat, gh3-tre-luc cells, AC50 (uM) modified / 1000
Counter-ions that a name gives are not always drawn.
Recorded measurements of CC50 at 24 h, one per entry

Completed entries (count: 5):
{"COMPOUND": "C/C=C1/C(=O)C[C@H]2[C@@H]3CCC4=CC(=O)CC[C@]4(C)[C@H]3CC[C@]12C [Guggulsterone E]", "MEASURED_PARAMETER": "CC50 at 24 h", "VAL": "> 90 µM"}
{"COMPOUND": "c1ccc([C@H]2CN3CCSC3=N2)cc1 [Levamisole hydrochloride]", "MEASURED_PARAMETER": "CC50 at 24 h", "VAL": "> 50 µM"}
{"COMPOUND": "C[C@]12CCC(=O)C=C1C=C[C@@H]1[C@@H]2CC[C@@]2(C)[C@H]1CC[C@@]2(O)CCC(=O)O [Canrenoate potassium]", "MEASURED_PARAMETER": "CC50 at 24 h", "VAL": "> 20 µM"}
{"COMPOUND": "ClCc1ccccn1 [2-(Chloromethyl)pyridine hydrochloride]", "MEASURED_PARAMETER": "CC50 at 24 h", "VAL": "> 90 µM"}
{"COMPOUND": "CN/C(=N\\c1ccc(C2=NNC(=O)CC2C)cc1)NC#N (stereo not shown) [Siguazodan]", "MEASURED_PARAMETER": "CC50 at 24 h", "VAL": "> 50 µM"}

Prompt line: Supply CC50 at 24 h value. Item: CN(C)[C@@H]1C(=O)C(C(=O)NCN2CCCC2)=C(O)[C@@]2(O)C(=O)C3=C(O)c4c(O)cccc4[C@@](C)(O)C3C[C@@H]12 (stereo partly shown) [Rolitetracycline hydrochloride]
Response line: > 50 µM

Prompt line: Supply CC50 at 24 h value. Item: CC[C@H]1CN2CCc3cc(OC)c(OC)cc3[C@@H]2C[C@@H]1C[C@H]1NCCc2cc(OC)c(OC)cc21 [Emetine dihydrochloride]
Response line: 0.065 µM

###

PROCEDURE_SUMMARY: in vitro
CONDITION_NOTES: rat, gh3-tre-luc cells, AC50 (uM) modified / 1000
Recorded measurements of CC50 at 24 h, one per entry
Give the quantity in µM, number only.

Completed entries (count: 3):
{"MOLECULE": "CCCCC(CC)COP(=O)(O)OCC(CC)CCCC (stereo not shown) [Bis(2-ethylhexyl) phosphate]", "U": "µM", "CC50 at 24 h": 63.4}
{"MOLECULE": "Nc1ccc2cc(S(=O)(=O)O)cc(O)c2c1N=Nc1ccccc1C(F)(F)F", "U": "µM", "CC50 at 24 h": 89.3}
{"MOLECULE": "CCCCc1ccc(O)cc1", "U": "µM", "CC50 at 24 h": 92.9}

Prompt line: Supply CC50 at 24 h value. Item: CC(CN(C)C)CN1c2ccccc2Sc2ccc(C(F)(F)F)cc21 (stereo not shown) [Trifluomeprazine 2-butenedioate]
Response line: 9.4

###

PROCEDURE_SUMMARY: in vitro
CONDITION_NOTES: rat, gh3-tre-luc cells, AC50 (uM) modified / 1000
Recorded measurements of CC50 at 24 h, one per entry

Completed entries (count: 8):
{"COMPOUND": "CCCCCN(C)CCC(O)(P(=O)(O)O)P(=O)(O)O [Ibandronate sodium]", "CC50 at 24 h": "> 50 µM"}
{"COMPOUND": "Nc1nc(=O)n([C@@H]2CS[C@H](CO)O2)cc1F [Emtricitabine]", "CC50 at 24 h": "> 50 µM"}
{"COMPOUND": "COc1cc(C[C@@H]2NCCc3cc(O)c(O)cc32)cc(OC)c1OC [Trimethoquinol]", "CC50 at 24 h": "> 50 µM"}
{"COMPOUND": "Cn1c(=O)c2c(ncn2CCO)n(C)c1=O [Etofylline]", "CC50 at 24 h": "> 50 µM"}
{"COMPOUND": "CN1CCN(c2ccccc2/C=C2\\SCCN(c3ccc(Cl)c(Cl)c3)C2=O)CC1 [Elzasonan]", "CC50 at 24 h": "8.33 µM"}
{"COMPOUND": "CC(=O)CCCCn1c(=O)c2c(ncn2C)n(C)c1=O [Pentoxifylline]", "CC50 at 24 h": "> 20 µM"}
{"COMPOUND": "CCOC(=O)C(C)OC(=O)c1cc(Oc2ccc(C(F)(F)F)cc2Cl)ccc1[N+](=O)[O-] (stereo not shown) [Lactofen]", "CC50 at 24 h": "> 90 µM"}
{"COMPOUND": "CCOc1ccccc1C(N)=O [2-Ethoxybenzamide]", "CC50 at 24 h": "> 90 µM"}

Prompt line: Supply CC50 at 24 h value. Item: COc1cccc2c1cc([N+](=O)[O-])c1c(C(=O)O)cc3c(c12)OCO3 [Sodium aristolochate-I]
Response line: 5.9 µM

Prompt line: Supply CC50 at 24 h value. Item: CCCC[n+]1ccccc1C [1-Butyl-2-methylpyridinium bromide]
Response line: > 90 µM
